- Read-out: Plasminogen activator inhibitor-1 (PAI1), SERPINE1 (gene 5054)
- method description: BSK_MyoF_PAI1: BioMAP Diversity Plus: MyoF Assay for Plasminogen activator inhibitor-1 (PAI1) Biomarker Activity (AID 2284256)
- applied conditions: primary human lung fibroblasts
- Experimental: BSK_MyoF is a cell-based, multiplexed-readout assay that uses lung fibroblasts, […], with measurements taken at 24 hours after chemical dosing in a microplate: 96-well plate.BSK_MyoF_PAI1 is an assay component measured in the BSK_MyoF assay. […] The levels of cell surface (or secreted, indicated by the prefix "s") biomarker endpoints were measured by ELISA. […] Plates were read after 6 h.
Calls of active or inactive are those of the source. How the source made its calls: active means hit-call score of the fitted dose curve at least 0.9, where 1 is the maximum; inactive means score below 0.9.
Your answer must be one of the following: 1 (yes) for active, 0 (no) for inactive

Cc1cc(O)c(C(C)(C)C)cc1C(C)(C)C: 1 (yes)
O=C(O)C(F)(F)OC(F)(F)C(F)(F)OC(F)(F)C(F)(F)OC(F)(F)F: 0 (no)
NC(=O)C(F)(F)C(F)(F)C(F)(F)C(F)F: 0 (no)
FC(F)(F)C(F)(F)C(F)(F)CC1CO1 (stereo unspecified): 0 (no)
O=C(Cl)C(F)(F)C(F)(F)C(F)(F)C(F)(F)C(F)(F)C(F)(F)F: 0 (no)

*Q* Query: recorded result category for O=C(Cl)C(F)(F)C(F)(F)C(F)(F)C(F)(F)C(F)(F)C(F)(F)C(F)(F)F in this test
*A* 0 (no)

*Q* Query: recorded result category for OCC(F)(F)C(F)(F)C(F)(F)C(F)(F)C(F)(F)C(F)(F)CO in this test
*A* 0 (no)

*Q* Query: recorded result category for OCCCCC(F)(F)C(F)(F)C(F)(F)C(F)(F)F in this test
*A* 0 (no)

*Q* Query: recorded result category for CCOC(=O)CC(=O)C(F)(F)C(F)(F)F in this test
*A* 0 (no)

*Q* Query: recorded result category for CO[Si](C)(CCC(F)(F)C(F)(F)C(F)(F)C(F)(F)C(F)(F)C(F)(F)F)OC in this test
*A* 0 (no)

*Q* Query: recorded result category for C=CC(=O)OCC(F)(F)C(F)(F)C(F)(F)C(F)(F)C(F)(F)C(F)(F)C(F)(F)C(F)F in this test
*A* 0 (no)
